- Test system: DAT (Homo sapiens)
- Sequence (Q01959 whole entry): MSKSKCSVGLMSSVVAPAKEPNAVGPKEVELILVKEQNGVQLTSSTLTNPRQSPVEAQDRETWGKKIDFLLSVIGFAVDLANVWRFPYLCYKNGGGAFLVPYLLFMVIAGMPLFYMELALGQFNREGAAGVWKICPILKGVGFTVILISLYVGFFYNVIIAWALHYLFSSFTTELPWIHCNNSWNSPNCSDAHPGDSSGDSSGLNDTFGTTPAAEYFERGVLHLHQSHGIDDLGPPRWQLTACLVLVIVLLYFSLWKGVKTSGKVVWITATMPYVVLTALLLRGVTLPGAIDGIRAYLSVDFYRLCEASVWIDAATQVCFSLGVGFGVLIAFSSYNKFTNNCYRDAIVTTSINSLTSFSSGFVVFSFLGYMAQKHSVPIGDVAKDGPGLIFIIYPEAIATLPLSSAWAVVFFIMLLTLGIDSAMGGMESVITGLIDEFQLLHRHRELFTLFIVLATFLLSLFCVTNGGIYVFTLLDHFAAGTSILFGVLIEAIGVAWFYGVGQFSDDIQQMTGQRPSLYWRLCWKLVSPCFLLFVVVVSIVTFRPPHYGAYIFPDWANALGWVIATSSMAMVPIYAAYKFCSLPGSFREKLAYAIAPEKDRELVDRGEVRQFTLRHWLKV
- Experiment description: Stereoselective uptake into DAT-overexpressing HEK293 cells;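 further: intracellular accumulation measured by chiral HPLC-MS/MS in stably transfected HEK293 cells, normalized to total protein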
- Measurement conditions: DAT; ratio between enantiomers, given as for (S) or for 2 (second-eluting)
Observable: Stereoselectivity Km (fold)
Just the number please, in fold, no unit attached.

Prompt line: Please tell me: Stereoselectivity Km of CNC[C@H](O)c1ccc(O)cc1 [(R)-Synephrine] , system DAT (Homo sapiens)?
Response line: 1.21

Prompt line: Form entry - test system: DAT (Homo sapiens); read-out: Stereoselectivity Km; compound: CNC[C@@H](O)c1ccc(O)cc1 [(S)-Synephrine]
Response line: 1.21

Prompt line: API: value(readout= Stereoselectivity Km, system= DAT (Homo sapiens), query= NCC(O)c1cccc(O)c1 (single isomer, unassigned) [Norphenylephrine-2, Norphenylephrine] )
Response line: 1.20

Prompt line: // lookup Stereoselectivity Km | system=DAT (Homo sapiens) | key= NC[C@H](O)c1ccccc1 [(R)-Bisnorephedrine]
Response line: 1.18

Prompt line: Short answer please: Stereoselectivity Km, DAT (Homo sapiens), entry NCC(O)c1cccc(O)c1 (single isomer, unassigned) [Norphenylephrine-1, Norphenylephrine]
Response line: 1.20

Prompt line: # query: Stereoselectivity Km | item NC[C@@H](O)c1ccccc1 [(S)-Bisnorephedrine] | system: DAT (Homo sapiens)
Response line: 1.18
